test system: 873145-292-R-J1-PDC complex spheroid viability; assay: Anticancer human tumor 873145-292-R-J1-PDC patient-derived renal clear cell carcinoma cell line growth inhibition [POLQ]; settings: curve of first compound; second compound 3.16 µM
pIC50: −log10 of the molar value.
measurementType: pIC50

Field: example entries. Status: answers known.
| compound | pIC50 |
| --- | --- |
| O=C(Nc1ccc(O)c(NS(=O)(=O)c2ccc(F)cc2)c1)c1ccc(-c2ccccc2)cc1 + Nc1ccc(C#CCN(C(=O)Cc2ncc(C(F)(F)F)cc2C(F)(F)F)c2ccc(F)cc2)nn1 | < 5.00 |
| COc1cccc(OCCCN)c1-c1cc(Nc2cnc(C#N)cn2)n[nH]1 + Nc1ccc(C#CCN(C(=O)Cc2ncc(C(F)(F)F)cc2C(F)(F)F)c2ccc(F)cc2)nn1 | < 6.00 |

May I ask what pIC50 has been recorded for CC1COCCN1c1cc(C2(S(C)(=N)=O)CC2)nc(-c2ccnc3[nH]ccc23)n1 (stereo not drawn) + Nc1ccc(C#CCN(C(=O)Cc2ncc(C(F)(F)F)cc2C(F)(F)F)c2ccc(F)cc2)nn1 ? < 5.00

====

system: 873145-292-R-J1-PDC complex spheroid viability; experiment: Anticancer human tumor 873145-292-R-J1-PDC cell line growth inhibition [POLQ]; details: curve of first compound; second compound 3.16 µM;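 further: spheroids exposed to compounds for 7 days before viability readout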
measurementType: IC50

| compound | IC50 |
| --- | --- |
| CC1COCCN1c1cc(C2(S(C)(=N)=O)CC2)nc(-c2ccnc3[nH]ccc23)n1 (stereo not given) + Cc1cccc(N(C)C(=O)C2C(O)CCN2c2nc(C)cc(C(F)(F)F)c2C#N)c1 | > 10 µM |

// fetch 873145-292-R-J1-PDC complex spheroid viability IC50 for CC[C@@]1(O)C(=O)OCc2c1cc1n(c2=O)Cc2cc3c(CN(C)C)c(O)ccc3nc2-1 + COC1C(OC(N)=O)C(O)C(Oc2ccc3c(O)c(NC(=O)c4ccc(O)c(CC=C(C)C)c4)c(=O)oc3c2C)OC1(C)C 0.0955 µM

// fetch 873145-292-R-J1-PDC complex spheroid viability IC50 for CC(C)n1c(=O)n(C)c2cnc3cc(F)c(-c4ccc(OCCCN5CCCCC5)nc4)cc3c21 + COC1C(OC(N)=O)C(O)C(Oc2ccc3c(O)c(NC(=O)c4ccc(O)c(CC=C(C)C)c4)c(=O)oc3c2C)OC1(C)C > 10 µM

// fetch 873145-292-R-J1-PDC complex spheroid viability IC50 for COc1cc2cc(C(=O)CCC(=O)O)sc2cc1OC + Nc1ccc(C#CCN(C(=O)Cc2ncc(C(F)(F)F)cc2C(F)(F)F)c2ccc(F)cc2)nn1 > 10 µM

// fetch 873145-292-R-J1-PDC complex spheroid viability IC50 for C#Cc1c(F)ccc2cc(O)cc(-c3ncc4c(N5CC6CCC(C5)N6)nc(OCC56CCCN5CC(F)C6)nc4c3F)c12 (stereo not given) + Cc1cccc(N(C)C(=O)C2C(O)CCN2c2nc(C)cc(C(F)(F)F)c2C#N)c1 > 10 µM

// fetch 873145-292-R-J1-PDC complex spheroid viability IC50 for C=CCn1c(=O)c2cnc(Nc3ccc(N4CCN(C)CC4)cc3)nc2n1-c1cccc(C(C)(C)O)n1 + COC1C(OC(N)=O)C(O)C(Oc2ccc3c(O)c(NC(=O)c4ccc(O)c(CC=C(C)C)c4)c(=O)oc3c2C)OC1(C)C > 1 µM

// fetch 873145-292-R-J1-PDC complex spheroid viability IC50 for C=CC(=O)N1CCN(c2nc(=O)n(-c3c(C)ccnc3C(C)C)c3nc(-c4c(O)cccc4F)c(F)cc23)C(C)C1 (stereo not given) + Nc1ccc(C#CCN(C(=O)Cc2ncc(C(F)(F)F)cc2C(F)(F)F)c2ccc(F)cc2)nn1 > 10 µM

====

Tested on: 873145-292-R-J1-PDC complex spheroid viability
Assay: Anticancer human tumor 873145-292-R-J1-PDC cell line growth inhibition [POLQ];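 further: spheroids exposed to compounds for 7 days before viability readout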
Conditions: curve of first compound; second compound 3.16 µM
Experimental: Multicellular complex tumor spheroid response to Polymerase (POL) inhibitors (novobiocin, ART-558, RP6685) in combination with a variety of drugs and investigational agents in selected tumor cell lines The POL inhibitors (novobiocin, ART-558, and RP6685) were evaluated both individually and in combination with standard of care and investigational anticancer small molecules within a complex spheroid model of solid tumors. . […]
measurementType: IC50

| compound | target | IC50 |
| --- | --- | --- |
| O=c1[nH]cc(F)c(=O)[nH]1 + Nc1ccc(C#CCN(C(=O)Cc2ncc(C(F)(F)F)cc2C(F)(F)F)c2ccc(F)cc2)nn1 | 873145-292-R-J1-PDC complex spheroid viability | > 10 µM |
| CNCc1ccc(-c2[nH]c3cc(F)cc4c3c2CCNC4=O)cc1 + COC1C(OC(N)=O)C(O)C(Oc2ccc3c(O)c(NC(=O)c4ccc(O)c(CC=C(C)C)c4)c(=O)oc3c2C)OC1(C)C | 873145-292-R-J1-PDC complex spheroid viability | > 10 µM |

Now consider the entry below.
May I ask what IC50 has been recorded for COc1cc(C2c3cc4c(cc3C(OC3OC5COC(C)OC5C(O)C3O)C3COC(=O)C23)OCO4)cc(OC)c1O (stereo not drawn) + Cc1cccc(N(C)C(=O)C2C(O)CCN2c2nc(C)cc(C(F)(F)F)c2C#N)c1 ? 9.5 µM

====

test system: 873145-292-R-J1-PDC complex spheroid viability; test: Anticancer human tumor 873145-292-R-J1-PDC cell line growth inhibition [POLQ]; conditions: second compound 3.16 µM; first compound 3.16 µM; stronger effect = lower value;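 further: spheroids exposed to compounds for 7 days before viability readout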;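 on viability, T/C: luminescence signal used as surrogate for viable cell content; 100% = DMSO vehicle control viability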
In this section, each of the molecules is paired with its reported viability, T/C.
Answer format: numeric, % implied, no suffix.

| molecule | target | unitsOfMeasure | reportedValue |
| --- | --- | --- | --- |
| COc1cc2cc(C(=O)CCC(=O)O)sc2cc1OC + Cc1cccc(N(C)C(=O)C2C(O)CCN2c2nc(C)cc(C(F)(F)F)c2C#N)c1 | 873145-292-R-J1-PDC complex spheroid viability | % | 98.4 |

May I ask what viability, T/C has been recorded for C#Cc1c(F)ccc2cc(O)cc(-c3ncc4c(N5CC6CCC(C5)N6)nc(OCC56CCCN5CC(F)C6)nc4c3F)c12 (stereo not drawn) + Cc1cccc(N(C)C(=O)C2C(O)CCN2c2nc(C)cc(C(F)(F)F)c2C#N)c1 ? 85.1

May I ask what viability, T/C has been recorded for COc1cc2cc(C(=O)CCC(=O)O)sc2cc1OC + COC1C(OC(N)=O)C(O)C(Oc2ccc3c(O)c(NC(=O)c4ccc(O)c(CC=C(C)C)c4)c(=O)oc3c2C)OC1(C)C ? 100

====

tested on: 873145-292-R-J1-PDC complex spheroid viability; assay: Anticancer human tumor 873145-292-R-J1-PDC cell line growth inhibition [POLQ]; settings: curve of first compound; second compound 0.1 µM;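 further: spheroids exposed to compounds for 7 days before viability readout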
pIC50: −log10 of the molar value.
measurementType: pIC50

Field: example entries. Status: answers known.
| compound | reportedValue |
| --- | --- |
| CCc1c2c(nc3ccc(O)cc13)-c1cc3c(c(=O)n1C2)COC(=O)[C@]3(O)CC + Nc1ccc(C#CCN(C(=O)Cc2ncc(C(F)(F)F)cc2C(F)(F)F)c2ccc(F)cc2)nn1 | 7.18 |
| C=CCn1c(=O)c2cnc(Nc3ccc(N4CCN(C)CC4)cc3)nc2n1-c1cccc(C(C)(C)O)n1 + Cc1cccc(N(C)C(=O)C2C(O)CCN2c2nc(C)cc(C(F)(F)F)c2C#N)c1 | < 6.00 |
| C=CCn1c(=O)c2cnc(Nc3ccc(N4CCN(C)CC4)cc3)nc2n1-c1cccc(C(C)(C)O)n1 + Nc1ccc(C#CCN(C(=O)Cc2ncc(C(F)(F)F)cc2C(F)(F)F)c2ccc(F)cc2)nn1 | < 6.00 |
| CC1COCCN1c1cc(-c2ccnn2C)c2ccnc(-c3ccn[nH]3)c2n1 (stereo not given) + Nc1ccc(C#CCN(C(=O)Cc2ncc(C(F)(F)F)cc2C(F)(F)F)c2ccc(F)cc2)nn1 | < 5.00 |
| C=CC(=O)N1CCN(c2nc(=O)n(-c3c(C)ccnc3C(C)C)c3nc(-c4c(O)cccc4F)c(F)cc23)C(C)C1 (stereo not given) + COC1C(OC(N)=O)C(O)C(Oc2ccc3c(O)c(NC(=O)c4ccc(O)c(CC=C(C)C)c4)c(=O)oc3c2C)OC1(C)C | < 5.00 |

May I ask what pIC50 has been recorded for CCc1cc2c(N3CCc4c(cc(Cn5ccnc5)cc4-c4cn(C)nc4C(F)(F)F)C3=O)cc(C)nc2c(OC)n1 + Cc1cccc(N(C)C(=O)C2C(O)CCN2c2nc(C)cc(C(F)(F)F)c2C#N)c1 ? < 5.00

May I ask what pIC50 has been recorded for CC1COCCN1c1cc(C2(S(C)(=N)=O)CC2)nc(-c2ccnc3[nH]ccc23)n1 (stereo not given) + COC1C(OC(N)=O)C(O)C(Oc2ccc3c(O)c(NC(=O)c4ccc(O)c(CC=C(C)C)c4)c(=O)oc3c2C)OC1(C)C ? < 5.00

May I ask what pIC50 has been recorded for CC[C@@]1(O)C(=O)OCc2c1cc1n(c2=O)Cc2cc3c(CN(C)C)c(O)ccc3nc2-1 + Nc1ccc(C#CCN(C(=O)Cc2ncc(C(F)(F)F)cc2C(F)(F)F)c2ccc(F)cc2)nn1 ? < 7.00

May I ask what pIC50 has been recorded for CC1COCCN1c1cc(-c2ccnn2C)c2ccnc(-c3ccn[nH]3)c2n1 (stereo not given) + Cc1cccc(N(C)C(=O)C2C(O)CCN2c2nc(C)cc(C(F)(F)F)c2C#N)c1 ? 5.80

May I ask what pIC50 has been recorded for O=C(c1cc(Cc2n[nH]c(=O)c3ccccc23)ccc1F)N1CCN(C(=O)C2CC2)CC1 + COC1C(OC(N)=O)C(O)C(Oc2ccc3c(O)c(NC(=O)c4ccc(O)c(CC=C(C)C)c4)c(=O)oc3c2C)OC1(C)C ? < 5.00

Origin of values: PubChem BioAssay AID1963834
